Target: His-BIR2-3 (125-356, C202A/C213G, XIAP) (Homo sapiens, UniProt P98170, C202A/C213G)
Construct: additions of His-BIR2-3 (125-356, C202A/C213G, XIAP), fluorescein labeled dimeric SMAC peptide
Sequence (P98170 125-356 C202A/C213G): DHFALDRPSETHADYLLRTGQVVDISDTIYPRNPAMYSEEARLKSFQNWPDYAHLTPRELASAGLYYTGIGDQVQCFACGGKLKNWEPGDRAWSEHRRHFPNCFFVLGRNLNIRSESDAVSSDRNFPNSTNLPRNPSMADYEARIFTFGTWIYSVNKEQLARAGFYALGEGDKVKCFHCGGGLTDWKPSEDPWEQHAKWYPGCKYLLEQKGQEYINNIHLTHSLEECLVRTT
Test: XIAP-BIR2-3 Dimeric SMAC Peptide Homogeneous Time Resolved Fluorescence (HTRF) Assay
Settings: XIAP BIR2-3, HTRF, Table 4
Measured IC50 values are reported for all entries that follow.
METRIC: IC50

{"columns": ["CHEMICAL SMILES", "RESULT"],
 "data": [
  ["CN[C@@H](C)C(=O)N[C@H](C(=O)N1C[C@@H]2C[C@H]1C(=O)N[C@@H](Cc1ccc3ccccc3c1)C(=O)N[C@H](C(=O)O)Cc1ccc(cc1)OCc1cn(nn1)[C@H]1C[C@@H](C(=O)N[C@@H](Cc3ccc4ccccc4c3)C(=O)N[C@H](C(=O)NCc3cc(F)c(O)c(F)c3)Cc3ccc(cc3)OCc3cn2nn3)N(C(=O)[C@@H](NC(=O)[C@H](C)NC)C(C)(C)C)C1)C(C)(C)C", "1 to 10 nM"],
  ["CN[C@@H](C)C(=O)N[C@H](C(=O)N1C[C@@H]2C[C@H]1C(=O)N[C@@H](Cc1ccc3ccccc3c1)C(=O)N[C@H](C(=O)O)Cc1ccc(cc1)OCc1cn(nn1)[C@H]1C[C@@H](C(=O)N[C@@H](Cc3ccc4ccccc4c3)C(=O)N[C@H](C(=O)O)Cc3ccc(cc3)NC(=O)CCc3cn2nn3)N(C(=O)[C@@H](NC(=O)[C@H](C)NC)C(C)(C)C)C1)C(C)(C)C", "≤ 1 nM"],
  ["CN[C@@H](C)C(=O)N[C@H](C(=O)N1C[C@@H]2C[C@H]1C(=O)N[C@@H](Cc1ccc3ccccc3c1)C(=O)N[C@H](C(=O)O)Cc1ccc(cc1)OCc1cn(nn1)[C@H]1C[C@@H](C(=O)N[C@@H](Cc3ccc4ccccc4c3)C(=O)N[C@H](C(=O)NS(=O)(=O)CC3CC3)Cc3ccc(cc3)OCc3cn2nn3)N(C(=O)[C@@H](NC(=O)[C@H](C)NC)C(C)(C)C)C1)C(C)(C)C", "1 to 10 nM"]
]}
